Target: Mas-related G-protein coupled receptor member X1 (Homo sapiens)
Experiment: blockade of BAM8-22-evoked MrgX1 calcium response – HEK293 cells, Fluo-4 calcium flux, primary screen (AID 588676)
Conditions: Fluo-4, BAM8-22 antagonism, at 10 µM
In all, about 310,000 compounds went through this assay and about 3,900 (1.3%) were called active.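 How the source made its calls: active means calcium-response B-score plate-corrected more than 3 library SD below zero, starting fluorescence within 5 deviations, no agonist response on first addition; inactive means the rest.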 The sample holds actives, similar compounds and a random draw of the others, so the mix is not that of the screen.
The categories you may choose from are Y = active, N = inactive

Recorded test call requested for OC(COc1ccc2ccccc2c1)Cn1cncn1 (stereo not drawn)
N

Recorded test call requested for "O=C(NCC(=O)N1CCN(c2ncc(C(F)(F)F)cc2Cl)CC1)c1ccc(Br)o1"
N

Recorded test call requested for CCC1CCCCN1CCNC(=O)c1[nH]c(C)c(C(C)=O)c1C (stereo not drawn)
Y

Recorded test call requested for "COc1cc([N+](=O)[O-])ccc1NC(=S)N1CCN(c2ccccn2)CC1"
Y

Recorded test call requested for "CC(=O)c1c(C)[nH]c(C(=O)NCCCN2CCCC2)c1C"
N

Recorded test call requested for O=C(c1cccs1)C1C(c2ccc(Br)cc2)NC(=S)NC1(O)C(F)(F)F (stereo not drawn)
Y

Recorded test call requested for "O=C(COC(=O)Cc1c[nH]c2ccccc12)NCCc1ccccc1"
N

Recorded test call requested for "COc1ccc(NC(=O)c2ccco2)cc1NC(=O)c1ccc(C#N)cc1F"
N

Recorded test call requested for "CCOC(=O)C1=C(O)CSC1=Nc1cccc(Cl)c1"
Y

Recorded test call requested for Cc1ccc(CN(CC(=O)NCC2CCCO2)S(=O)(=O)c2ccc(C)cc2)cc1 (stereo not drawn)
N

Recorded test call requested for COc1cc(NC(=O)CN2C(=O)NC(C)(c3ccc(OC(F)F)cc3)C2=O)cc(OC)c1OC (stereo not drawn)
N

Recorded test call requested for "O=C(O)CN1c2cccc3cccc(c23)S1(=O)=O"
N

Recorded test call requested for O=C(c1ccccc1)C(Cn1cncn1)C(Sc1ccccc1)c1ccccc1 (stereo not drawn)
Y

Recorded test call requested for Cc1ccc(N2C(=O)C3C4C=CC(CC4)C3C2=O)cc1Br (stereo not drawn)
N

Recorded test call requested for "CCc1ccc2nc3sc(C(=O)Nc4nnc(CC)s4)c(N)c3cc2c1"
Y

Recorded test call requested for "CCOC(=O)CSc1ncc(-c2cccc(Cl)c2)cn1"
N

Recorded test call requested for "CNC(=S)N1CCN(c2ccccn2)CC1"
N

Recorded test call requested for "CCCCN(CC)CCNC(=O)c1[nH]c(C)c(C(C)=O)c1C"
N

Recorded test call requested for CCOC(=O)C(Sc1ncc(C#N)c(N)n1)C(C)C (stereo not drawn)
N

Recorded test call requested for CC(=O)C1C(c2cccc(Oc3ccccc3)c2)NC(=O)NC1(O)C(F)(F)F (stereo not drawn)
N

Recorded test call requested for "CN(C)S(=O)(=O)c1cccc(NC(=S)N/N=C/C(=O)c2ccccc2)c1"
Y

Recorded test call requested for "O=C(NCCN1CCOCC1)c1ccc(/C=C2\Sc3ccccc3N(Cc3ccc(F)cc3)C2=O)cc1"
N

Recorded test call requested for CCOC(=O)C1C(c2ccc(Cl)cc2)NC(=S)NC1(O)C(F)(F)F (stereo not drawn)
N

====

Molecular target: Mas-related G-protein coupled receptor member X1 (Homo sapiens)
Assay: blockade of BAM8-22-evoked MrgX1 calcium response – HEK293 cells, Fluo-4 calcium flux, primary screen (AID 588676)
Conditions: Fluo-4, BAM8-22 antagonism, at 10 µM
About 3,900 (1.3%) of roughly 310,000 compounds were called active.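 Rule for the calls: active = calcium-response B-score plate-corrected more than 3 library SD below zero, starting fluorescence within 5 deviations, no agonist response on first addition; inactive = the rest.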 The entries come from a sample that favours actives as a whole.
The categories you may choose from are 1 for active, 0 for inactive

Recorded test call requested for "Cc1ccc2nc(-c3ccc(NC(=O)c4cccnc4)cc3)oc2c1"
1

Recorded test call requested for CCCCCC1CCC(c2nnc(SCC(C)=O)o2)CC1 (stereo not drawn)
0

Recorded test call requested for COc1cc(C2/C(=C(\O)c3ccc4c(c3)CC(C)O4)C(=O)C(=O)N2Cc2ccco2)ccc1O (stereo not drawn)
1

Recorded test call requested for "Cc1ccc2cc(/C=N/NC(=O)[C@@H]3CCCN3)c(Cl)nc2c1"
0

Recorded test call requested for "CCOc1ccc(NC(=S)N2CCC(NC(=O)c3ccccc3)CC2)cc1"
0

Recorded test call requested for COc1ccc(C2/C(=C(/O)c3ccc4c(c3)CC(C)O4)C(=O)C(=O)N2Cc2ccncc2)cc1 (stereo not drawn)
0

Recorded test call requested for "CCOc1ccc(C(=O)NC2CCN(S(=O)(=O)CC)CC2)cc1"
1

Recorded test call requested for "CCOC(=O)c1c(NC(=O)CCC(=O)NCc2ccco2)sc2c1CCCC2"
0

Recorded test call requested for "O=S(=O)(Nc1ccccc1Cl)c1cccc2nsnc12"
0

Recorded test call requested for COc1ccc(/C(O)=C2\C(=O)C(=O)N(Cc3ccco3)C2c2ccc(OC)cc2OC)cc1 (stereo not drawn)
0

Recorded test call requested for Cc1ccc(C)c(NC(=O)C2Cc3ccccc3CN2C(=O)OCc2ccccc2)c1 (stereo not drawn)
0

Recorded test call requested for "CCOC(=O)c1c(N=CN(C)C)c(C#N)c2n1CCCC2"
0

Recorded test call requested for "O=c1cc(CSc2ccccn2)nc(N2CCN(c3ccccc3)CC2)[nH]1"
1

Recorded test call requested for CN1C(C(=O)NCC2CC2)CC2Cn3c(nc4ccccc43)C21 (stereo not drawn)
0

Recorded test call requested for "C=CCn1c(SCC(=O)/C(C#N)=C(\C)N)nc2sc(C)c(C)c2c1=O"
0

Recorded test call requested for CN(C)N1C(N)=C(C#N)C(c2ccc(Br)cc2)C2=C1CCCC2=O (stereo not drawn)
0

Recorded test call requested for "Cc1ccc2cc(/C=N/Nc3ccc(C(=O)O)cc3)c(Cl)nc2c1"
1

Recorded test call requested for "COc1ccc([N+](=O)[O-])cc1NC(=O)CCc1ccccc1"
0

Recorded test call requested for "NS(=O)(=O)c1ccccc1NC(=O)c1c(O)c2ccccc2[nH]c1=O"
0

Recorded test call requested for C#CCOCCOCCOCCNc1nc(N2CCN(C(=O)C(Cc3ccc(O)cc3)n3cc(C(N)CC(C)C)nn3)CC2)nc(N2CCN(C(=O)C(Cc3ccc(O)cc3)n3cc(C(N)C(C)CC)nn3)CC2)n1 (stereo not drawn)
0

Recorded test call requested for "CCOc1ccc(NS(=O)(=O)c2ccc(C(=O)NC3CCN(Cc4ccccc4)CC3)cc2)cc1"
0

Recorded test call requested for "CCCCCc1nnc(NC(=O)c2ccc(=O)n(C)n2)s1"
0

Recorded test call requested for "Cc1ccc(SCc2cc(=O)[nH]c(N3CCCCC3)n2)cc1"
0

Recorded test call requested for "CCOc1ccc(S(=O)(=O)NCCC(=O)N2CCCCCCC2)cc1"
0

Recorded test call requested for "Clc1ccc(-c2nnc(-c3ccccc3)nc2N2CCSCC2)cc1"
0

Recorded test call requested for "CCN(CC(=O)Nc1cc(Cl)ccc1C)C(=O)Cn1c(=O)cnc2ccccc21"
0

Recorded test call requested for "CC(=O)N1CCN(C(=O)c2cc(-c3ccc(Cl)s3)nc3ccccc23)CC1"
0

Recorded test call requested for "Cc1ccc(C(=O)OC2=CC(=O)CC(C)(C)C2)cc1"
0

Recorded test call requested for "O=C(CC1CCCCC1)NCc1ccc(F)cc1"
0

Recorded test call requested for "CCCn1c(=O)c2ccccc2n2c(SCC(=O)/C(C#N)=C(\C)N)nnc12"
1

Recorded test call requested for "O=Cc1ccc(OCc2cn3ccccc3n2)cc1"
0

Recorded test call requested for "Cc1nnc(SCc2cc(=O)[nH]c(N3CCN(Cc4ccccc4)CC3)n2)s1"
0

Recorded test call requested for "Cc1nc(-c2ccc(F)cc2)c(CC(=O)N2CCN(S(=O)(=O)c3ccc(F)cc3)CC2)s1"
0

Recorded test call requested for "COc1ccc(S(=O)(=O)n2nc(C)c(S(=O)(=O)N3CCOCC3)c2C)cc1"
0

Recorded test call requested for "CC1CCN(Cc2nc(-c3ccc(Cl)cc3)no2)CC1"
0

Recorded test call requested for "Cc1ccc(S(=O)(=O)N2CCN(S(=O)(=O)N3CCOCC3)CC2)cc1"
0

Recorded test call requested for "C=CCn1nc(-c2ccccc2)c2c(C)onc2c1=O"
1

Recorded test call requested for "CC(C)CNC(=O)COC(=O)/C=C/c1ccco1"
0

Recorded test call requested for "O=c1c(Cl)c(NCc2ccc(F)cc2Cl)cnn1C12CC3CC(CC(C3)C1)C2"
0

Recorded test call requested for "O=C(Nc1cc(S(=O)(=O)N2CCOCC2)ccc1Cl)c1cc(=O)c2ccccc2o1"
0

Recorded test call requested for "Cc1ccccc1N1CCN(S(=O)(=O)c2ccc3ccccc3c2)CC1"
0

Recorded test call requested for "CCSc1sc(CC)cc1C=O"
0

Recorded test call requested for CCOC(=O)c1ccc2[nH]c3c(c2c1)CCCC3NC=O (stereo not drawn)
0

The origin of these recorded values is PubChem BioAssay AID588676.
